Numbers sourced from ChEMBL document CHEMBL1148828.

System: Plasmodium falciparum
Test description: Antimalarial activity against Plasmodium falciparum W2
Assay type: functional, organism-based
Assay endpoint: IC50 (nM)

# Compound, Units text, Experimental result
measured = [
    ("CC(=O)O[C@H]1C[C@H]2[C@@H](CC[C@@H]3CC4(CC[C@@]32C)OOC2(CCC(C)CC2)OO4)[C@@H]2CC[C@H]([C@H](C)CCC(=O)Nc3ccccc3)[C@@]12C (stereo in doubt; 19)", "nM", 50.8),
    ("CC(=O)O[C@H]1C[C@H]2[C@@H](CC[C@@H]3CC4(CC[C@@]32C)OOC2(CCC(C)CC2)OO4)[C@@H]2CC[C@H]([C@H](C)CCC(=O)Nc3ccccc3)[C@@]12C (stereo in doubt; 18)", "nM", 23.1),
    ("CC(=O)O[C@H]1C[C@H]2[C@@H](CC[C@@H]3CC4(CC[C@@]32C)OOC2(CCC(C)CC2)OO4)[C@@H]2CC[C@H]([C@H](C)CCC(N)=O)[C@@]12C (stereo in doubt; 13)", "nM", 19.4),
    ("CC(=O)O[C@H]1C[C@H]2[C@@H]([C@H](OC(C)=O)C[C@@H]3CC4(CC[C@@]32C)OOC2(CCC(C)CC2)OO4)[C@@H]2CC[C@H]([C@H](C)CCC(=O)Nc3ccccc3)[C@@]12C (stereo in doubt; 21)", "nM", 23.1),
]

====

Examples of compounds with documented IC50 follow.
System: Plasmodium falciparum
Test description: Antimalarial activity against Plasmodium falciparum W2
Format: functional, organism-based

# Compound, IC50 (nM)
measured = [
    ("CCCNC(=O)CC[C@@H](C)[C@H]1CC[C@H]2[C@@H]3CC[C@@H]4CC5(CC[C@]4(C)[C@H]3C[C@H](OC(C)=O)[C@]12C)OOC1(CCC(C)CC1)OO5 (stereo in doubt; 14)", 10.1),
    ("CC(=O)O[C@H]1C[C@H]2[C@@H](CC[C@@H]3CC4(CC[C@@]32C)OOC2(CCC(C)CC2)OO4)[C@@H]2CC[C@H]([C@H](C)CCC(=O)NCCN(C)C)[C@@]12C (stereo in doubt; 16)", 16.8),
]

====

Tested on: UO-31
Test description: Antiproliferative activity against human UO31 cells after 48 hrs
Assay type: functional
Test context: Homo sapiens, UO-31, 48 h
Assay endpoint: GI50 (µM)

# Compound, Assay endpoint, Result comparator, Experimental result
data = [
    ("CC(=O)O[C@H]1C[C@H]2[C@@H]([C@H](OC(C)=O)C[C@@H]3CC4(CC[C@@]32C)OOC2(CCC(C)CC2)OO4)[C@@H]2CC[C@H]([C@H](C)CCC(=O)Nc3ccccc3)[C@@]12C (stereo in doubt; 21)", "GI50", "=", 0.222),
    ("CCCNC(=O)CC[C@@H](C)[C@H]1CC[C@H]2[C@@H]3CC[C@@H]4CC5(CC[C@]4(C)[C@H]3C[C@H](OC(C)=O)[C@]12C)OOC1(CCC(C)CC1)OO5 (stereo in doubt; 15)", "GI50", "=", 0.122),
    ("CC(=O)O[C@H]1C[C@H]2[C@@H]([C@H](OC(C)=O)C[C@@H]3CC4(CC[C@@]32C)OOC2(CCCCC2)OO4)[C@@H]2CC[C@H]([C@H](C)CCC(N)=O)[C@@]12C", "GI50", "<", 0.01),
    ("CC1CCC2(CC1)OOC1(CC[C@@]3(C)[C@H](CC[C@@H]4[C@@H]3C[C@H](O)[C@]3(C)[C@@H]([C@H](C)CCC(=O)NCCN(C)C)CC[C@@H]43)C1)OO2 (stereo in doubt; 16a)", "GI50", "=", 0.206),
]

====

Examples of molecules with documented GI50 follow.
Test system: 786-0
Test description: Antiproliferative activity against human 786-0 cells after 48 hrs
Type: functional
Test context: Homo sapiens, 786-0, 48 h
Assay endpoint: GI50

# Molecule, Experimental result
records = [
    ("CC1CCC2(CC1)OOC1(CC[C@@]3(C)[C@H](CC[C@@H]4[C@@H]3C[C@H](O)[C@]3(C)[C@@H]([C@H](C)CCC(=O)NCCN(C)C)CC[C@@H]43)C1)OO2 (stereo in doubt; 16a)", "626 nM"),
    ("CC(=O)O[C@H]1C[C@H]2[C@@H](CC[C@@H]3CC4(CC[C@@]32C)OOC2(CCC(C)CC2)OO4)[C@@H]2CC[C@H]([C@H](C)CCC(=O)NCCN(C)C)[C@@]12C (stereo in doubt; 16)", "60 nM"),
    ("CC(=O)O[C@H]1C[C@H]2[C@@H](CC[C@@H]3CC4(CC[C@@]32C)OOC2(CCCCC2)OO4)[C@@H]2CC[C@H]([C@H](C)CCC(=O)NCCN(C)C)[C@@]12C", "159 nM"),
    ("CC(=O)O[C@H]1C[C@H]2[C@@H]([C@H](OC(C)=O)C[C@@H]3CC4(CC[C@@]32C)OOC2(CCCCC2)OO4)[C@@H]2CC[C@H]([C@H](C)CCC(N)=O)[C@@]12C", "783 nM"),
]

====

Examples of compounds with documented half-life follow.
Test description: Metabolic stability in human liver microsomes
Format: ADME, Microsome
Test context: liver microsomes
Assay endpoint: half-life (h)

# Compound, Units text, Experimental result
rows = [
    ("CC(=O)O[C@H]1C[C@H]2[C@@H](CC[C@@H]3CC4(CC[C@@]32C)OOC2(CCC(C)CC2)OO4)[C@@H]2CC[C@H]([C@H](C)CCC(=O)NCCN(C)C)[C@@]12C (stereo in doubt; 16)", "h", 1.83),
    ("CC(=O)O[C@H]1C[C@H]2[C@@H]([C@H](OC(C)=O)C[C@@H]3CC4(CC[C@@]32C)OOC2(CCCCC2)OO4)[C@@H]2CC[C@H]([C@H](C)CCC(=O)NCCN(C)C)[C@@]12C", "h", 0.667),
]

====

System: Plasmodium falciparum
Test description: Antimalarial activity against Plasmodium falciparum W2
Assay type: functional, organism-based
pIC50: −log10 of the molar value.
Examples of molecules with documented pIC50 follow.
Assay endpoint: pIC50

# Molecule, Experimental result
measured = [
    ("CC(=O)O[C@H]1C[C@H]2[C@@H]([C@H](OC(C)=O)C[C@@H]3CC4(CC[C@@]32C)OOC2(CCC(C)CC2)OO4)[C@@H]2CC[C@H]([C@H](C)CCC(=O)NCCN(C)C)[C@@]12C (stereo in doubt; 22)", 7.78),
    ("CC(=O)O[C@H]1C[C@H]2[C@@H](CC[C@@H]3CC4(CC[C@@]32C)OOC2(CCC(C)CC2)OO4)[C@@H]2CC[C@H]([C@H](C)CCC(=O)NCCN(C)C)[C@@]12C (stereo in doubt; 17)", 6.87),
    ("CC(=O)O[C@H]1C[C@H]2[C@@H](CC[C@@H]3CC4(CC[C@@]32C)OOC2(CCC(C)CC2)OO4)[C@@H]2CC[C@H]([C@H](C)CCC(=O)O)[C@@]12C (stereo in doubt; 4c)", 7.37),
    ("CC(=O)O[C@H]1C[C@H]2[C@@H]([C@H](OC(C)=O)C[C@@H]3CC4(CC[C@@]32C)OOC2(CCC(C)CC2)OO4)[C@@H]2CC[C@H]([C@H](C)CCC(=O)Nc3ccccc3)[C@@]12C (stereo in doubt; 20)", 8.10),
]

====

Test system: Plasmodium falciparum
Test description: Antimalarial activity against Plasmodium falciparum D6
Format: functional, organism-based
Examples of compounds with documented IC50 follow.
Assay endpoint: IC50 (nM)

# Compound, Subject of test, Experimental result
measured = [
    ("CC(=O)O[C@H]1C[C@H]2[C@@H]([C@H](OC(C)=O)C[C@@H]3CC4(CC[C@@]32C)OOC2(CCC(C)CC2)OO4)[C@@H]2CC[C@H]([C@H](C)CCC(=O)NCCN(C)C)[C@@]12C (stereo in doubt; 23)", "Plasmodium falciparum", 43.8),
    ("CC(=O)O[C@H]1C[C@H]2[C@@H]([C@H](OC(C)=O)C[C@@H]3CC4(CC[C@@]32C)OOC2(CCC(C)CC2)OO4)[C@@H]2CC[C@H]([C@H](C)CCC(=O)NCCN(C)C)[C@@]12C (stereo in doubt; 22)", "Plasmodium falciparum", 18.6),
    ("CC(=O)O[C@H]1C[C@H]2[C@@H]([C@H](OC(C)=O)C[C@@H]3CC4(CC[C@@]32C)OOC2(CCC(C)CC2)OO4)[C@@H]2CC[C@H]([C@H](C)CCC(=O)Nc3ccccc3)[C@@]12C (stereo in doubt; 20)", "Plasmodium falciparum", 5.48),
    ("CCCNC(=O)CC[C@@H](C)[C@H]1CC[C@H]2[C@@H]3CC[C@@H]4CC5(CC[C@]4(C)[C@H]3C[C@H](OC(C)=O)[C@]12C)OOC1(CCC(C)CC1)OO5 (stereo in doubt; 15)", "Plasmodium falciparum", 29.3),
]
